Value source: ChEMBL document CHEMBL4020828

- Tested on: Enterococcus faecalis
- PROTOCOL_DESCRIPTION: Antibacterial activity against vancomycin-resistant Enterococcus faecalis ATCC 29212 after 24 hrs
- Assay type: functional
- RECORDED_CONDITIONS: ATCC 29212, 24 h
Positions of bridges follow the written chain, without caps; N, C: chain ends. Non-standard residues stand in square brackets, D forms with d. Residues, ends and D or L forms follow the SMILES beside them. dNMeF = CN[C@H](Cc1ccccc1)C(=O)O
METRIC: MIC (µg/mL)
Answer in µg/mL, number only, no unit symbol.

What MIC appears in the records for this compound with Enterococcus faecalis? CC[C@@H](C)[C@@H](NC(=O)[C@@H](CCCNC(=N)N)NC(=O)[C@H](CCCNC(=N)N)NC(=O)[C@@H](NC(=O)[C@@H](Cc1ccccc1)NC)[C@@H](C)CC)C(=O)N[C@H](C(=O)N[C@@H](CO)C(=O)N[C@H]1C(=O)N[C@@H](CCCNC(=N)N)C(=O)N[C@@H](CC(C)C)C(=O)N[C@@H]([C@@H](C)CC)C(=O)O[C@H]1C)[C@@H](C)CC (H-[dNMeF]IR[dR][dI]IS[dT]RLI; ester 8-C)
4

What MIC appears in the records for this compound with Enterococcus faecalis? CC[C@@H](C)[C@@H](NC(=O)[C@@H](CCC(N)=O)NC(=O)[C@H](CCCNC(=N)N)NC(=O)[C@@H](NC(=O)[C@@H](Cc1ccccc1)NC)[C@@H](C)CC)C(=O)N[C@H](C(=O)N[C@@H](CO)C(=O)N[C@H]1C(=O)N[C@@H](C)C(=O)N[C@@H]([C@@H](C)CC)C(=O)N[C@@H]([C@@H](C)CC)C(=O)O[C@H]1C)[C@@H](C)CC
1
